The values you see were collected from ChEMBL document CHEMBL3856233.

Experiment: Cmax in Sprague-Dawley rat at 5 mg/kg, po after 0.033 to 24 hrs by LC/MS/MS analysis
Assay type: ADME, organism-based
Parameters: dose 5 mg/kg, route oral
Conditions: in vivo
readout.label: Cmax (ng/mL)

chemical.structure	recorded.result
C[C@@H]1c2ncn(-c3ccc(F)cn3)c2CCN1C(=O)c1cccc(C(F)(F)F)c1Cl	375

* * *

Experiment: Solubility of the compound in phosphate buffer at pH 7 at room temperature after 3 days
Recorded solubility at 72 h, one value per entry.

chemical.structure	units.text	solubility at 72 h
C[C@@H]1c2ncn(-c3ccc(F)cn3)c2CCN1C(=O)c1cccc(C(F)(F)F)c1Cl	µM	29
C[C@@H]1c2ncn(-c3ccc(F)cc3)c2CCN1C(=O)c1cccc(C(F)(F)F)c1Cl	µM	14
C[C@@H]1c2ncn(-c3ncc(F)cn3)c2CCN1C(=O)c1cccc(C(F)(F)F)c1Cl	µM	4
C[C@@H]1c2ncn(-c3ccccn3)c2CCN1C(=O)c1cccc(C(F)(F)F)c1Cl	µM	20

* * *

Experiment: Tmax in rat at 1000 mg/kg, po
Type: ADME, organism-based
Conditions: in vivo
readout.label: Tmax (h)

chemical.structure	recorded.result
C[C@@H]1c2ncn(-c3ccc(F)cn3)c2CCN1C(=O)c1cccc(C(F)(F)F)c1Cl	24

* * *

Assay: Protein binding in mouse plasma at 1 uM after 6 hrs by LC/MS/MS analysis
Format: ADME, cell-free
Details: read-out: PPB (converted)

chemical.structure	fraction unbound at 6 h, 1 µM
C[C@@H]1c2ncn(-c3ccc(F)cn3)c2CCN1C(=O)c1cccc(C(F)(F)F)c1Cl	0.045

* * *

Experiment: Clearance in Beagle dog at 1 mg/kg, iv after 0.033 to 24 hrs by LC/MS/MS analysis
Type: ADME, organism-based, Canis lupus familiaris
Conditions: in vivo

chemical.structure	clearance / mL/min/kg
C[C@@H]1c2ncn(-c3ccc(F)cn3)c2CCN1C(=O)c1cccc(C(F)(F)F)c1Cl	5.5

* * *

Target: CYP3A4 (Homo sapiens)
Sequence (P08684 whole entry): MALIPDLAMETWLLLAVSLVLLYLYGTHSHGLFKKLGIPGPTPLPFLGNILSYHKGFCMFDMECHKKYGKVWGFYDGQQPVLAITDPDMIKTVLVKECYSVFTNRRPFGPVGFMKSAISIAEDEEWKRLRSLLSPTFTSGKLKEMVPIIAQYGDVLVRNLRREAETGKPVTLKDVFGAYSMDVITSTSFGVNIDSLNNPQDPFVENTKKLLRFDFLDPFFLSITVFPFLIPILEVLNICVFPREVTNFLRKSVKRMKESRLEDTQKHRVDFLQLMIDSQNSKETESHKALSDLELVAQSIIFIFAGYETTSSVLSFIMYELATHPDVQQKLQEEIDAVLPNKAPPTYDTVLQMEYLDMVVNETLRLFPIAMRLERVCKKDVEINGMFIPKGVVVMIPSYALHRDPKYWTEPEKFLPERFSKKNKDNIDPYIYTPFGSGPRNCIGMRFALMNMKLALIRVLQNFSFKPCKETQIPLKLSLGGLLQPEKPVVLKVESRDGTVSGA
Assay: Inhibition of CYP3A4 in human liver microsomes using midazolam as substrate assessed as reduction in 1-OH-midazolam formation at 2.5 uM by LC/MS/MS analysis
Type: ADME
Settings: probe midazolam
readout.label: inhibition at 2.5 µM (%)

chemical.structure	tgt	recorded.result
C[C@@H]1c2ncn(-c3ccc(F)cn3)c2CCN1C(=O)c1cccc(C(F)(F)F)c1Cl	CYP3A4 (Homo sapiens)	52

* * *

Target: Voltage-gated inwardly rectifying potassium channel KCNH2 (Homo sapiens)
Sequence (Q12809 whole entry): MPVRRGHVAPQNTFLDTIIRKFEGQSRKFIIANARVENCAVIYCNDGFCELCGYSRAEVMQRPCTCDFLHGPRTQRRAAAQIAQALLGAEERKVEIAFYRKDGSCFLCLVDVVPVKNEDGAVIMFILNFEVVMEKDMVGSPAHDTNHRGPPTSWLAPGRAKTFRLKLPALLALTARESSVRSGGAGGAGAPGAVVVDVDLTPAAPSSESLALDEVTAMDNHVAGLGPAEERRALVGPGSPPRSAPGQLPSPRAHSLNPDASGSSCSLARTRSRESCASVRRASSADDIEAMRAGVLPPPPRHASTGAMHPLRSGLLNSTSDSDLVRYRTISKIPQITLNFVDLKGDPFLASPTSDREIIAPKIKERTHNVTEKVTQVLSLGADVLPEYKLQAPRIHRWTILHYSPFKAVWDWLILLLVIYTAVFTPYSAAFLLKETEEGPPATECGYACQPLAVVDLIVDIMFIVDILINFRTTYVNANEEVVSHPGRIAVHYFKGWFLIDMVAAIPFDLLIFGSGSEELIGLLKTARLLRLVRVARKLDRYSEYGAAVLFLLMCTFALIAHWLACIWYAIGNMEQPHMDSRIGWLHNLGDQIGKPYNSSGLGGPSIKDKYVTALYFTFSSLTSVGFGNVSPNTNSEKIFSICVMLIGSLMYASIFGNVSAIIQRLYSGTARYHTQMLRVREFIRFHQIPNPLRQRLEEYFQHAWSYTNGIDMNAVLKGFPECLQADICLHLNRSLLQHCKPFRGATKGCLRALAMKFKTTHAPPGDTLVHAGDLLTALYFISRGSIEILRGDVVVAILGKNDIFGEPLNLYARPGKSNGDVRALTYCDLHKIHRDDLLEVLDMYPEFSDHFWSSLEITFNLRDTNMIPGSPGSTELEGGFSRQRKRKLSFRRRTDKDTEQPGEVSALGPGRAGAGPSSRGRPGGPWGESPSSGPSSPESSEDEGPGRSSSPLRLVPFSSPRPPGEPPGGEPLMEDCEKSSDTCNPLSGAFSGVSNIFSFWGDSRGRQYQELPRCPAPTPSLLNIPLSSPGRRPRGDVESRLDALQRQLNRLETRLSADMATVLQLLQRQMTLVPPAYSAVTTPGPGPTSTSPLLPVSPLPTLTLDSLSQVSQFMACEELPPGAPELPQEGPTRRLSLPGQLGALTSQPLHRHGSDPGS
Assay: Displacement of [3H]astemizole from human ERG expressed in HEK293 cells by competitive binding assay

chemical.structure	IC50
C[C@@H]1c2ncn(-c3ccccn3)c2CCN1C(=O)c1cccc(C(F)(F)F)c1Cl	> 10 µM
C[C@@H]1c2ncn(-c3ncc(F)cn3)c2CCN1C(=O)c1cccc(C(F)(F)F)c1Cl	> 10 µM

* * *

Test: Half life in Beagle dog at 1 mg/kg, iv by LC/MS/MS analysis
Assay type: ADME, organism-based, Canis lupus familiaris
Settings: in vivo
readout.label: half-life

chemical.structure	readout.label	recorded.result
C[C@@H]1c2ncn(-c3ccc(F)cn3)c2CCN1C(=O)c1cccc(C(F)(F)F)c1Cl	half-life	11.9 h

* * *

Test: Volume of distribution at steady state in Sprague-Dawley rat at 1 mg/kg, iv after 0.033 to 24 hrs by LC/MS/MS analysis
Assay type: ADME, organism-based
Conditions: in vivo, read-out: Vdss

chemical.structure	units.text	Vd
C[C@@H]1c2ncn(-c3ccc(F)cn3)c2CCN1C(=O)c1cccc(C(F)(F)F)c1Cl	L/kg	3.8
